Test system: U87MG (human glioblastoma astrocytoma)
testMethodNotes: Cell adhesion assay on matrigel coated wells
Type: cell-based
conditionDetails: 2.5 µM, percent of adhesion with respect to the control (100%)
readoutType: Adhesion Assay (%) U87MG

{"columns": ["compound", "unitSymbol", "observedResult"],
 "data": [
  ["Cn1cc(NC(=O)Nc2cc(C(=O)Nc3cc(C(=O)Nc4cccc(CC(=O)N[C@@H](Cc5ccccc5)C(=O)O)c4)n(C)c3)n(C)c2)cc1C(=O)Nc1cc(C(=O)Nc2cccc(CC(=O)N[C@@H](Cc3ccccc3)C(=O)O)c2)n(C)c1 [Compound 17e]", "%", 51.6],
  ["Cn1cc(NC(=O)c2ccc(Oc3ccc(C(=O)Nc4cc(C(=O)Nc5cccc(CC(=O)N[C@@H](Cc6ccccc6)C(=O)O)c5)n(C)c4)cc3)cc2)cc1C(=O)Nc1cccc(CC(=O)N[C@@H](Cc2ccccc2)C(=O)O)c1 [Compound 36e]", "%", 73.0],
  ["Cn1cc(NC(=O)Nc2cc(C(=O)Nc3cc(C(=O)Nc4cccc(CC(=O)NCC(=O)O)c4)n(C)c3)n(C)c2)cc1C(=O)Nc1cc(C(=O)Nc2cccc(CC(=O)NCC(=O)O)c2)n(C)c1", "%", 62.9],
  ["Cn1cc(NC(=O)c2cccc(NC(=O)Nc3cccc(C(=O)Nc4cc(C(=O)Nc5cccc(CC(=O)NCC(=O)O)c5)n(C)c4)c3)c2)cc1C(=O)Nc1cccc(CC(=O)NCC(=O)O)c1 [Compound 12b]", "%", 16.7],
  ["Cn1cc(NC(=O)c2cc(NC(=O)Nc3cc(C(=O)Nc4cc(C(=O)Nc5cccc(CC(=O)NCC(=O)O)c5)n(C)c4)cc(C(F)(F)F)c3)cc(C(F)(F)F)c2)cc1C(=O)Nc1cccc(CC(=O)NCC(=O)O)c1 [Compound 13c]", "%", 22.0]
]}

Data credit: patent EP3381898A1
